Measured EC90, listed per entry for reference.
- Tested on: HIV-1LAI
- PROCEDURE_DETAILS: HIV-1 replication in PHA-stimulated peripheral blood mononuclear cells
- Format: cell-based
- ASSAY_CONTEXT: Human immunodeficiency virus 1, PBMC, read-out: HIV-1 in PBM cells EC90
Structures can show the parent of a compound that is named as a salt.
OUTCOME_MEASURE: EC90 (nM)

[[record]]
molecule = "Nc1ccn([C@H]2CC[C@@H](CO)O2)c(=O)n1"
outcome_measure = "EC90"
sign_qualifier = "="
reading = 310

[[record]]
molecule = "NC(=O)c1ncn([C@@H]2O[C@H](CO)[C@@H](O)[C@H]2O)n1 [Ribavirin (RBV), Ribavirin]"
outcome_measure = "EC90"
sign_qualifier = ">"
reading = 100000

[[record]]
molecule = "CC(C)OC(=O)OCOP(=O)(CO[C@H](C)Cn1cnc2c(N)ncnc21)OCOC(=O)OC(C)C [Tenofovir disoproxil fumarate (TDF), Tenofovir disoproxil fumarate]"
outcome_measure = "EC90"
sign_qualifier = "="
reading = 180


###

# Lookup of reported CC50 keyed by entry
- PROCEDURE_DETAILS: Cytotoxicity in MCF-7 cells (MTT / CellTiter 96 AQueous One)
- Format: cell-based, human
- ASSAY_CONTEXT: human
OUTCOME_MEASURE: CC50 (µM)

[[record]]
molecule = "Cc1c(O)cccc1C(=O)N[C@@H](CSc1ccccc1)[C@H](O)CN1C[C@H]2CCCC[C@H]2C[C@H]1C(=O)NC(C)(C)C [Nelfinavir]"
reading = 7.4

[[record]]
molecule = "CC(C)(C)NC(=O)[C@@H]1CN(Cc2cccnc2)CCN1C[C@@H](O)C[C@@H](Cc1ccccc1)C(=O)N[C@H]1c2ccccc2C[C@H]1O [Indinavir]"
reading = 69.9

[[record]]
molecule = "Cc1cn([C@@H]2C[C@@H](O)[C@H](CO)O2)c(=O)[nH]c1=O [Telbivudine (LdT), Telbivudine]"
reading = 88.3

[[record]]
molecule = "CC(C)(C)NC(=O)[C@@H]1C[C@@H]2CCCC[C@@H]2CN1C[C@@H](O)[C@H](Cc1ccccc1)NC(=O)[C@H](CC(N)=O)NC(=O)c1ccc2ccccc2n1 [Saquinavir]"
reading = 53.7

[[record]]
molecule = "Nc1ccn([C@H]2CC[C@@H](CO)O2)c(=O)n1 [Zalcitabine (ddC), Zalcitabine]"
reading = 89.8

[[record]]
molecule = "Cc1cccc(C)c1OCC(=O)N[C@@H](Cc1ccccc1)[C@@H](O)C[C@H](Cc1ccccc1)NC(=O)[C@H](C(C)C)N1CCCNC1=O [Lopinavir]"
reading = 8.5


###

- PROCEDURE_DETAILS: Cytotoxicity in MCF-7 cells (MTT / CellTiter 96 AQueous One)
- Type: cell-based, human
- ASSAY_CONTEXT: human
Structures can show the parent of a compound that is named as a salt.
Please assign not satisfied whenever CC50 is at or above 70 µM, and satisfied whenever it is below.

[[record]]
compound = "Cc1cn([C@H]2C[C@H](F)[C@@H](CO)O2)c(=O)[nH]c1=O"
assigned_class = "not satisfied"

[[record]]
compound = "CN(C)c1ccc2nc3ccc(=[N+](C)C)cc-3sc2c1"
assigned_class = "satisfied"

[[record]]
compound = "Nc1ccn([C@@H]2CS[C@H](CO)O2)c(=O)n1"
assigned_class = "not satisfied"

[[record]]
compound = "CC(C)OC(=O)OCOP(=O)(CO[C@H](C)Cn1cnc2c(N)ncnc21)OCOC(=O)OC(C)C [Tenofovir disoproxil fumarate (TDF), Tenofovir disoproxil fumarate]"
assigned_class = "satisfied"

[[record]]
compound = "Nc1nc(O)c2ncn(COC(CO)CO)c2n1"
assigned_class = "not satisfied"

[[record]]
compound = "O=c1[nH]c(=O)n([C@H]2C[C@H](O)[C@@H](CO)O2)cc1I"
assigned_class = "satisfied"

[[record]]
compound = "CC(O)(CS(=O)(=O)c1ccc(F)cc1)C(=O)Nc1ccc(C#N)c(C(F)(F)F)c1 (stereo not drawn) [Bicalutamide]"
assigned_class = "satisfied"

[[record]]
compound = "Nc1ncnc2c1ncn2[C@@H]1O[C@H](CO)[C@@H](O)[C@@H]1O"
assigned_class = "satisfied"

[[record]]
compound = "Cc1cn([C@H]2C[C@H](N=[N+]=[N-])[C@@H](CO)O2)c(=O)[nH]c1=O [3'-Azido-3'-deoxythymidine (ZDV), 3'-Azido-3'-deoxythymidine]"
assigned_class = "satisfied"

[[record]]
compound = "Nc1nc2c(ncn2COCCO)c(=O)[nH]1"
assigned_class = "not satisfied"

[[record]]
compound = "Nc1nc2c(ncn2CCC(CO)CO)c(=O)[nH]1"
assigned_class = "not satisfied"

[[record]]
compound = "O=c1[nH]cnc2c1ncn2[C@H]1CC[C@@H](CO)O1"
assigned_class = "not satisfied"

[[record]]
compound = "NC(=O)c1ncn([C@@H]2O[C@H](CO)[C@@H](O)[C@H]2O)n1 [Ribavirin (RBV), Ribavirin]"
assigned_class = "not satisfied"

[[record]]
compound = "C=C1[C@H](CO)[C@@H](O)C[C@@H]1n1cnc2c(=O)[nH]c(N)nc21 [Entecavir (ETV), Entecavir]"
assigned_class = "not satisfied"

[[record]]
compound = "Nc1nc(=O)n([C@@H]2CS[C@H](CO)O2)cc1F [Emtricitabine [(-)-FTC], Emtricitabine]"
assigned_class = "not satisfied"

